Recorded MIC, one value per entry.
- Test system: Mycobacterium avium
- Assay Method Text: Antimycobacterial activity against Mycobacterium avium CNCTC My 152/73 assessed as growth inhibition after 14 days by microdilution method
- Assay type: functional
- Measurement Parameters: CNCTC My 152/73, 336 h
Property: MIC

1. NC(=O)c1cnccn1 [PYRAZINAMIDE] = > 100 µg/mL
2. O=C(Nc1ccccc1F)c1cnc(Cl)cn1 = > 100 µg/mL
3. O=C(NCc1cccc([N+](=O)[O-])c1)c1cnc(Cl)cn1 = > 100 µg/mL
4. O=C(NCc1cccc(Cl)c1)c1cnc(Cl)cn1 = > 100 µg/mL
5. Cc1ccc(CNC(=O)c2cnc(Cl)cn2)cc1 = > 100 µg/mL
6. O=C(NCc1ccc(Cl)cc1Cl)c1cnc(Cl)cn1 = > 100 µg/mL
7. O=C(NCc1ccccc1C(F)(F)F)c1cnc(Cl)cn1 = > 100 µg/mL
8. O=C(Nc1ccc(Br)cc1)c1cnc(Cl)cn1 = > 100 µg/mL
9. O=C(NCc1ccc(Br)cc1)c1cnc(Cl)cn1 = > 100 µg/mL
10. NNC(=O)c1ccncc1 = 6.25 µg/mL
11. Cc1ccccc1CNC(=O)c1cnc(Cl)cn1 = > 100 µg/mL
12. O=C(Nc1cccc(Cl)c1)c1cnc(Cl)cn1 = 25 µg/mL
13. O=C(NCc1ccccc1Cl)c1cnc(Cl)cn1 = > 100 µg/mL

###

- Test system: Nakaseomyces glabratus
- Assay Method Text: Antifungal activity against Candida glabrata 20/I assessed as growth inhibition after 24 to 48 hrs by microbroth dilution method
- Assay type: functional, organism-based
Calls of active or inactive are those of the source. The rule behind the calls is not given here.
Outcome codes: Y for active, N for inactive

1) O=C(Nc1ccccc1F)c1cnc(Cl)cn1 = N
2) O=C(Nc1ccc(Br)cc1)c1cnc(Cl)cn1 = N
3) O=C(Nc1ccccc1Cl)c1cnc(Cl)cn1 = N
4) Cc1ccccc1CNC(=O)c1cnc(Cl)cn1 = N
5) O=C(NCc1ccc(Cl)cc1Cl)c1cnc(Cl)cn1 = N
6) O=C(Nc1cccc(Cl)c1)c1cnc(Cl)cn1 = N
7) O=C(NCc1cccc([N+](=O)[O-])c1)c1cnc(Cl)cn1 = N
8) O=C(NCc1cccc(Cl)c1)c1cnc(Cl)cn1 = N
9) Cc1ccc(CNC(=O)c2cnc(Cl)cn2)cc1 = N
10) O=C(NCc1ccccc1F)c1cnc(Cl)cn1 = N
11) COc1ccc(NC(=O)c2cnc(Cl)cn2)c(OC)c1 = N
12) O=C(NCc1ccccc1Cl)c1cnc(Cl)cn1 = N
13) O=C(Nc1cccc([N+](=O)[O-])c1)c1cnc(Cl)cn1 = N
14) O=C(NCc1ccc(Br)cc1)c1cnc(Cl)cn1 = N
15) COc1ccc(CNC(=O)c2cnc(Cl)cn2)c(OC)c1 = N
16) OC(Cn1cncn1)(Cn1cncn1)c1ccc(F)cc1F = Y
17) O=C(NCc1ccccc1C(F)(F)F)c1cnc(Cl)cn1 = N

###

Recorded log K, one value per entry.
- Assay Method Text: Lipophilicity, log K of the compound by HPLC analysis
- Format: physicochemical
Property: log K

1) O=C(NCc1ccccc1F)c1cnc(Cl)cn1 = 0.3395
2) O=C(NCc1ccccc1C(F)(F)F)c1cnc(Cl)cn1 = 0.4851
3) O=C(Nc1cccc([N+](=O)[O-])c1)c1cnc(Cl)cn1 = 0.3443
4) O=C(NCc1ccc(Cl)cc1Cl)c1cnc(Cl)cn1 = 0.727
5) O=C(Nc1ccccc1Cl)c1cnc(Cl)cn1 = 0.8193
6) O=C(Nc1cccc(Cl)c1)c1cnc(Cl)cn1 = 0.5873
7) O=C(NCc1cccc(Cl)c1)c1cnc(Cl)cn1 = 0.4229
8) COc1ccc(NC(=O)c2cnc(Cl)cn2)c(OC)c1 = 0.5791
9) O=C(NCc1cccc([N+](=O)[O-])c1)c1cnc(Cl)cn1 = 0.1189
10) Cc1ccccc1CNC(=O)c1cnc(Cl)cn1 = 0.3947
11) O=C(NCc1ccccc1Cl)c1cnc(Cl)cn1 = 0.4168
12) COc1ccc(CNC(=O)c2cnc(Cl)cn2)c(OC)c1 = 0.2266
13) O=C(Nc1ccc(Br)cc1)c1cnc(Cl)cn1 = 0.6601
14) Cc1ccc(CNC(=O)c2cnc(Cl)cn2)cc1 = 0.4199
15) O=C(NCc1ccc(Br)cc1)c1cnc(Cl)cn1 = 0.4981
16) O=C(Nc1ccccc1F)c1cnc(Cl)cn1 = 0.4903
